- TARGET_DESC: fusion glycoprotein (F) of RSV A GFP (Tables 41 and 42) (respiratory syncytial virus A)
- PROCEDURE_DETAILS: cell-based or functional assay
// values below are reported IC50 (ng/ml), RSV A GFP neutralization
READOUT_NAME: IC50 (ng/ml), RSV A GFP neutralization (ng/mL)

binder="MPK77-rIgG1-LS (antibody, V domains shown) VH: EVQLVESGGGLVKPGGSLRLSCAASKSFSGYYMIWIRQAPGRGLEWIADISGSSTYTDYADSVKGRFTISRDNTRNTLYLQMNSLRPEDTAVYYCATEQVPSPGPFDLWGPGTLVTVSS VL: QSVLTQPPSVSGAPGQRVIISCTGSSSNIGAGYDVHWYQQFPGTSPKLLIYRNTNRPSGVPDRFSGFKSGASAALAITGLQAEDEADYYCQSYDRSLSGWAFGGGTKVTVL" result_value=6.77
binder="MPK104-rIgG1-LS (antibody, V domains shown) VH: EVQLVESGGGLVKPGGSLRLSCAASGFTIDGYGMNWVRQAPGKGLEWVSSISASSNYIYYADSMKGRFTISRDNGKNSLYLQMHSLRVEDTGVYYCARAPLEPPYFDLWGRGTLVTVSS VL: QSVLTQPPSVSGAPGQRVTISCSGGSSNIGAGYDVHWYQQVPGKGPKVLIYGNNNRPSGVPDRFSGSNFGASASLAITGLQADDEADYFCQSYDRRLGGPVFGGGTKLTVL" result_value=7.44
binder="MPK190-v1.1-rIgG1m17,1-LS (antibody, V domains shown, also called MPK190-v1.1-rIgG1-LS) VH: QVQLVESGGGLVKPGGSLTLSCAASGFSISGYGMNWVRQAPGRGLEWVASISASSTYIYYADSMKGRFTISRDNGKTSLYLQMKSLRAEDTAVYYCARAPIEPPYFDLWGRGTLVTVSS VL: QSVLTQPPSVSGAPGQRVTISCTGSNSNIGAGYDVHWYQHLPGKAPKVLIYGNNNRPSVVPDRFSGSNSGASASLAISGLQAEDEADYFCQSYDRRLSGPIFGGGTKLTVL" result_value=3.54
